Biological target: mouse NPY Y5 receptor (Mus musculus, UniProt O70342)
Sequence (O70342 1-466): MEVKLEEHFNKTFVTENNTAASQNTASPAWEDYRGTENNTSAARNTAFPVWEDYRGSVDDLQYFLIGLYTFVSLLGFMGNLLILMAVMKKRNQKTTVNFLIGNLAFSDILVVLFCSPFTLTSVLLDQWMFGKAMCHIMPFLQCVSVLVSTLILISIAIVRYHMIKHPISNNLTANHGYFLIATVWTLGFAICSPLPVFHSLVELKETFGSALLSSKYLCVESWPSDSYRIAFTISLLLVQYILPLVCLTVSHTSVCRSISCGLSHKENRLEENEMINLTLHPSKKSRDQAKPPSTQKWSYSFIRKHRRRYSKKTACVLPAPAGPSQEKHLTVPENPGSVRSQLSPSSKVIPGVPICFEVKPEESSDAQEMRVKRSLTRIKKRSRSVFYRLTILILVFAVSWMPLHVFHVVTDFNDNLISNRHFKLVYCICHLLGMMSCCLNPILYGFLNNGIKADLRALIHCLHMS
property: pIC50
Give bare numbers, as −log10 of the molar value.

// pIC50 lookup, compound = `CCS(=O)(=O)N[C@H]1CC[C@H](CNc2cc(-c3ccccc3)on2)CC1` , result: 8.47

* * *

Would you mind telling me the reported melting point of each entry?

// input: 7 compounds below; output: melting point for each
1. CC(C)S(=O)(=O)NC[C@H]1CC[C@H](Nc2nc3ccc(F)cc3s2)CC1
2. CCS(=O)(=O)NC[C@H]1CC[C@H](Nc2nc3ccccc3o2)CC1
3. CC(C)(C)S(=O)(=O)NC[C@H]1CC[C@H](Nc2nc3cc(F)ccc3o2)CC1
4. CC(C)S(=O)(=O)NC[C@H]1CC[C@H](Nc2nc3cc(Cl)ccc3s2)CC1
5. CC(C)S(=O)(=O)NC[C@H]1CC[C@H](Nc2nc3ccc(F)cc3o2)CC1
6. CCC(C)S(=O)(=O)NC[C@H]1CC[C@H](Nc2nc3ccc(F)cc3o2)CC1 (stereo partly shown)
7. CC(C)S(=O)(=O)NC[C@H]1CC[C@H](Nc2nc3cc(F)ccc3s2)CC1

// result
1: 151 to 152 °C; 2: 170 to 171 °C; 3: 220 to 221 °C; 4: 166 to 167 °C; 5: 170 to 171 °C; 6: 173 to 174 °C; 7: 165 to 166 °C
